# assayTarget: T1, TNFR1 (Homo sapiens, UniProt P19438)
# T1 chain: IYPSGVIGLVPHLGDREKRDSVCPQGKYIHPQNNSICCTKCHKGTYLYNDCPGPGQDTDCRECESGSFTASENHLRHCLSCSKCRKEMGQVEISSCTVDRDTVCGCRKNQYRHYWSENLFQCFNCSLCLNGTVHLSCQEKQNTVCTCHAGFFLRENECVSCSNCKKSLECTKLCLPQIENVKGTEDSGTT
# test: yeast display SC50
metric: apparent Kd (screen) (nM)

[[record]]
binder = "V104D (designed binder) MTLQELLREEALRRAEAEAFRYALELLAEKFPEQKEYLLDLAEEIESQIRSLSGVDVEDVRKFLDKEWAWVKELLAEHPAELAEVEAARAARLAELRAEVEAKDAA"
value = 0.718

[[record]]
binder = "V57P (designed binder) MTLQELLREEALRRAEAEAFRYALELLAEKFPEQKEYLLDLAEEIESQIRSLSGVDPEDVRKFLDKEWAWVKELLAEHPAELAEVEAARAARLAELRAEVEAKVAA"
value = 1.54

[[record]]
binder = "A23C (designed binder) MTLQELLREEALRRAEAEAFRYCLELLAEKFPEQKEYLLDLAEEIESQIRSLSGVDVEDVRKFLDKEWAWVKELLAEHPAELAEVEAARAARLAELRAEVEAKVAA"
value = 0.446

[[record]]
binder = "S53A (designed binder) MTLQELLREEALRRAEAEAFRYALELLAEKFPEQKEYLLDLAEEIESQIRSLAGVDVEDVRKFLDKEWAWVKELLAEHPAELAEVEAARAARLAELRAEVEAKVAA"
value = 0.956

[[record]]
binder = "E84A (designed binder) MTLQELLREEALRRAEAEAFRYALELLAEKFPEQKEYLLDLAEEIESQIRSLSGVDVEDVRKFLDKEWAWVKELLAEHPAELAAVEAARAARLAELRAEVEAKVAA"
value = 0.718

[[record]]
binder = "L12S (designed binder) MTLQELLREEASRRAEAEAFRYALELLAEKFPEQKEYLLDLAEEIESQIRSLSGVDVEDVRKFLDKEWAWVKELLAEHPAELAEVEAARAARLAELRAEVEAKVAA"
value = 1.16

[[record]]
binder = "E43I (designed binder) MTLQELLREEALRRAEAEAFRYALELLAEKFPEQKEYLLDLAIEIESQIRSLSGVDVEDVRKFLDKEWAWVKELLAEHPAELAEVEAARAARLAELRAEVEAKVAA"
value = 0.539

[[record]]
binder = "A106I (designed binder) MTLQELLREEALRRAEAEAFRYALELLAEKFPEQKEYLLDLAEEIESQIRSLSGVDVEDVRKFLDKEWAWVKELLAEHPAELAEVEAARAARLAELRAEVEAKVAI"
value = 0.593


Where these numbers come from: paper PMC12416549
